Tested on: NCI-H460 lung
Procedure summary: NCI-60 one-dose screen, 48 h (100 = growth as untreated, 0 = no growth, -100 = all killed)
Condition label: 10 µM unless noted
Method: Growth inhibition of the NCI-H460 human Non-Small Cell Lung tumor cell line is measured as a screen for anti-cancer activity. Cells are grown in 96 well plates and exposed to the test compound for 48 hours. Compounds are tested at a single concentration, which is 10^-5 M for most compounds. The reported endpoint is percent growth (GI% or GIPRCNT), where numbers from 0 - 100% represent growth inhibition, and numbers from -100% - 0 represent cell death. […]
The panel holds about 83,000 compounds, 20% with a hit somewhere; the sample as a whole holds those more often.
Endpoint: growth (%)
# value in %; strip the unit string

{"Chem smiles": "COc1cc(/C=C/c2cc(/C=C/c3ccc(O)c(OC)c3)n(C(=O)Nc3ccc(C)cc3C)n2)ccc1O", "Units": "%", "growth": 1.87}
{"Chem smiles": "C=C1C(=O)O[C@H]2[C@H]1CC/C(CNC(=O)/C=C/c1cc(OC)c(OC)c(OC)c1)=C\\CC[C@@]1(C)O[C@@H]21", "Units": "%", "growth": 82.3}
{"Chem smiles": "Cc1nc2ccccc2c(/C=C/c2ccc(Br)cc2)c1C(=O)/C=C/c1ccccc1", "Units": "%", "growth": -56.4}

Task: Find the measured growth of `O=C(NS(=O)(=O)c1ccccc1)n1cc(-c2ccncc2)c(-c2cc(O)cc(Cl)c2)n1` and report it.
Result: 111
